Test system: K4 kissing-loop RNA reporter;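 note: bound reporter read as fluorescence of individual clusters on recovered sequencing chips by microscopy, with normalized cluster intensities fitted with a binding model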
Experiment: apparent KD of K4 kissing-loop reporter; higher = weaker reporter binding
Settings: Eterna round: R107; input ligand: FMN 200 uM
Use 300 nM as the dividing line for apparent KD of K4 kissing-loop reporter, with the line itself on the TRUE side and lower values as FALSE.

Past entries and their recorded results:
residueSequence	systemUnderTest	assignedCategory
UCCUGCAAUCGUCCACGAAAGUGGAUCGAUACCAGAGUCGAAAGACUCCCUUGGCAGCGAGUGAUGUUCGAAGCAGGUAAAUAAA	K4 kissing-loop RNA reporter	TRUE
UUUCGCUUCGUCUGAUAUAAUUGGCCAGAAGGAGCGGUAGAAUUACCAGGUAGGUCGCUGGCCCAGUGAUGUUGGGACUAGCGUG [Isrianve]	K4 kissing-loop RNA reporter	FALSE
UUUAAAUAUAGUGAUGUUAUAUAACAAUGACGAGGACCGGUACGGCCGCCACUCGAGAGAGAUAAUGAUAAAAUACAUAAUUUUC [AstrosSSTrypA#2]	K4 kissing-loop RNA reporter	TRUE

Given the entry UGUCAUUGGUCUGAUACCAGUCCCUUGGCAGCCUAAAGGAGUGAUGUUCCAAGGAUACCAGACCCUUGGCAGCAGACCGAUGACU [TheoBS 28 #DoubleAptamer #SwitchBubble] , answer whether its apparent KD of K4 kissing-loop reporter meets or surpasses 300 nM.
TRUE

Given the entry CCUAUCUCAUACGAUACCAGUCAAUGAUCUUUGAUCAAUGCCAUCACCGAGUGAUGUUCGGACCCUUGGCAGCGUAUGAGAUAGG [whbob_Ex_Theo_B_sa103] , answer whether its apparent KD of K4 kissing-loop reporter meets or surpasses 300 nM.
FALSE
